melting point: recorded values

Before answering, review these 4 worked examples.
INSERT INTO results (compound, observed_result) VALUES
  ('CCC(C)(NC(=O)c1cc(Cl)cc(Cl)c1)C(=O)CCl (stereo not given)', '159 to 161 °C'),
  ('CC(=O)N1CCN(CC2CN=C(c3cc4cc(OCCCS(C)(=O)=O)cc(N(C)S(=O)(=O)c5ccccn5)c4[nH]3)S2)CC1 (stereo not given)', '165 to 167 °C'),
  ('N#Cc1ccc(N2CCC(C(N)=O)CC2)c2ccccc12', '249 to 250 °C'),
  ('O=c1oc2ccc(-c3ccc(F)cc3F)cc2c(=O)n1-c1ccc(F)cc1F', '155 to 156 °C');

We now examine a further compound.
## Task Fill blank: measured melting point of the compound `Cc1noc(NC(=O)N2CCN(c3nccc(-c4ccccc4F)n3)CC2)c1C` is ____.
## Result 194 to 195 °C
